Assay: Neurotoxicity in ip dosed albino Sprague-Dawley rat assessed as minimal motor impairment after 0.25 to 0.5 hrs
Format: toxicity, organism-based
Measurement Conditions: in vivo
Documented TD50 across a set of compounds
Metric Name: TD50

# Compound, Observed Value
data = [
    ("CCC[C@@H](C(N)=O)[C@H](C)CC [(2R,3R)-SEC-BUTYLPROPYLACETAMIDE]", "34 mg/kg"),
    ("CCCC(C(N)=O)C(C)CC (racemic)", "49 mg/kg"),
    ("CCC[C@@H](C(N)=O)[C@@H](C)CC [(2R,3S)-SEC-BUTYLPROPYLACETAMIDE]", "41 mg/kg"),
    ("CCC[C@H](C(N)=O)[C@@H](C)CC", "34 mg/kg"),
]
